# OD450 values compiled below
Target: hemagglutinin (HA) of influenza A/Solomon Islands/3/06 H1N1 (Influenza A virus A/Solomon …)
Assay: ELISA, inactivated whole virions coated; transfection supernatant set 2

TCN-526 (5084_C17) (antibody, V domains shown) VH: EVLMVESGGGLVQPGGSVRLSCVASGFSFSSHWMTWVRQAPGKGLEWVANIEDDGGDKYYVDSVKGRFIISRDNAKNSVYLQMNSLRAEDTAVYFCARGSGSSDRSDYDPHYYYYLDVWGKGATVTVSS VL: DIQLTQSPSSLSASVGDRVTITCRASQSISRYLNWYQQKPGKAPKLLLFAASTLLDGVPSRFSGSGSGTDFTLTISSLQPEDFATYYCQRNHSPSWTFGQGTRVEIK | 0.08 OD450
TCN-563 (5237_B21) (antibody, V domains shown) VH: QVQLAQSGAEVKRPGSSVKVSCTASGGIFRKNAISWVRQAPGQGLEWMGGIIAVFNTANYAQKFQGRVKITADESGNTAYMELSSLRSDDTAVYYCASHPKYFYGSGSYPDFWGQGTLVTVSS VL: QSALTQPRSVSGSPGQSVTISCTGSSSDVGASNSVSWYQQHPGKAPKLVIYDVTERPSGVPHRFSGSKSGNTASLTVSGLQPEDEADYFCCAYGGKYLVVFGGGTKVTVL | 3.6 OD450
TCN-523 (5248_A17) (antibody, V domains shown) VH: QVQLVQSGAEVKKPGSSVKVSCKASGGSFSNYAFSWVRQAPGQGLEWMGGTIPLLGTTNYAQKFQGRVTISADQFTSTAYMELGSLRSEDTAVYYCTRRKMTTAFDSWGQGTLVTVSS VL: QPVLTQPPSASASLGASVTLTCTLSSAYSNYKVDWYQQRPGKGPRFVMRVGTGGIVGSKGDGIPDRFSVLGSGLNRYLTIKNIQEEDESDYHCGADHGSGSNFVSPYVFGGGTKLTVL | 3.67 OD450

# input Form field: reported OD450 of TCN-522 (3212_I12) (antibody, V domains shown) VH: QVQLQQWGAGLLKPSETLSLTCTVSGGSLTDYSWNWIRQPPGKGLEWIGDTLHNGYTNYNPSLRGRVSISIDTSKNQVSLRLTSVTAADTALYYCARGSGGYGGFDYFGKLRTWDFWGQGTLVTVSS VL: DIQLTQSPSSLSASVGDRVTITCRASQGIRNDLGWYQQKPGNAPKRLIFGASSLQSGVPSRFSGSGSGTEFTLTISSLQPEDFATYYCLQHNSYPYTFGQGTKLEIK
# output 3.48 OD450

Every entry's value here was drawn from patent US20120207760A1.
